Test: Evaluation of artificial lipid membrane binding using a Biacore S51 system
Conditions: phospholipidosis inducing activity judged from artificial lipid membrane binding
RESULT_TYPE: Judgment

Below are worked cases with known answers.
[
  {
    "MOLECULE": "CC(C)(O)[C@@H](O)c1nc(-c2ccc(=O)n(-c3c(F)cccc3F)c2)c(-c2ccc(F)cc2F)o1 [Example 227 (1)]",
    "Judgment": "Negative"
  },
  {
    "MOLECULE": "CC(C)(O)[C@@H](O)c1nc(-c2ccc(F)cc2F)c(-c2ccc(=O)n(-c3c(F)cccc3F)c2)o1 [Example 207]",
    "Judgment": "Negative"
  },
  {
    "MOLECULE": "C[C@@](O)(CO)c1nc(-c2ccc(F)cc2F)c(-c2ccc(=O)n(-c3c(F)cccc3F)c2)o1 [Example 211]",
    "Judgment": "Negative"
  },
  {
    "MOLECULE": "CC(C)(O)[C@H](O)c1nc(-c2ccc(F)cc2F)c(-c2ccc(=O)n(-c3c(F)cccc3F)c2)o1 [Example 206]",
    "Judgment": "Negative"
  }
]

Now for another entry.
Request: Reported Judgment, molecule CC(C)(O)c1nc(-c2ccc(=O)n(-c3c(F)cccc3F)c2)c(-c2ccc(F)cc2F)o1 [Example 7 (21)] : ____
Response: Negative

----------
Listed here are compounds together with their documented inhibition at 0.3 mg/kg.
System: TNF-α production induced by lipopolysaccharide (LPS) in rats
Assay: Rat cytokine-production model
Type: in vivo
Conditions: male SD rat, oral 0.3 mg/kg, LPS 10 μg/kg intravenously after 8 hours, plasma TNF-α ninety minutes after LPS; read-out: Inhibition rate (%) (Dose of compound: 0.3 mg/kg)
Write the number in % without appending the unit.

Take a look at these entries with their results.
[
  {
    "SAMPLE_SMILES": "CC(C)(O)c1nc(-c2ccc(F)cc2F)c(-c2ccc(=O)n(-c3c(F)cccc3F)c2)o1",
    "inhibition at 0.3 mg/kg, %": 82
  },
  {
    "SAMPLE_SMILES": "CC(C)(O)c1nc(-c2ccc(=O)n(-c3c(F)cccc3F)c2)c(-c2ccc(F)cc2F)o1",
    "inhibition at 0.3 mg/kg, %": 85
  },
  {
    "SAMPLE_SMILES": "CC(C)(O)[C@H](O)c1nc(-c2ccc(=O)n(-c3c(F)cccc3F)c2)c(-c2ccc(F)cc2F)o1",
    "inhibition at 0.3 mg/kg, %": 65
  },
  {
    "SAMPLE_SMILES": "O=c1ccc(-c2nc(C(O)(CO)CO)oc2-c2ccc(F)cc2F)cn1-c1c(F)cccc1F",
    "inhibition at 0.3 mg/kg, %": 64
  },
  {
    "SAMPLE_SMILES": "C[C@@](O)(CO)c1nc(-c2ccc(=O)n(-c3c(F)cccc3F)c2)c(-c2ccc(F)cc2F)o1",
    "inhibition at 0.3 mg/kg, %": 73
  },
  {
    "SAMPLE_SMILES": "C[C@@](O)(CO)c1nc(-c2ccc(F)cc2F)c(-c2ccc(=O)n(-c3c(F)cccc3F)c2)o1",
    "inhibition at 0.3 mg/kg, %": 85
  },
  {
    "SAMPLE_SMILES": "C[C@](O)(CO)c1nc(-c2ccc(F)cc2F)c(-c2ccc(=O)n(-c3c(F)cccc3F)c2)o1",
    "inhibition at 0.3 mg/kg, %": 49
  },
  {
    "SAMPLE_SMILES": "CC(C)(O)[C@@H](O)c1nc(-c2ccc(=O)n(-c3c(F)cccc3F)c2)c(-c2ccc(F)cc2F)o1",
    "inhibition at 0.3 mg/kg, %": 88
  }
]

Request: Which measured inhibition at 0.3 mg/kg value corresponds to `CC(C)(O)[C@@H](O)c1nc(-c2ccc(F)cc2F)c(-c2ccc(=O)n(-c3c(F)cccc3F)c2)o1` ?
Response: 94

Request: Look up inhibition at 0.3 mg/kg: `CC(C)(O)[C@H](O)c1nc(-c2ccc(F)cc2F)c(-c2ccc(=O)n(-c3c(F)cccc3F)c2)o1`
Response: 79

Request: Suppose we examine the compound `CC(C)(O)Cc1nc(-c2ccc(F)cc2F)c(-c2ccc(=O)n(-c3c(F)cccc3F)c2)o1` ; what inhibition at 0.3 mg/kg value has been reported?
Response: 88

Request: I have this compound here, `C[C@](O)(CO)c1nc(-c2ccc(=O)n(-c3c(F)cccc3F)c2)c(-c2ccc(F)cc2F)o1` , and I need its recorded inhibition at 0.3 mg/kg.
Response: 64

Request: Entry `O=c1ccc(-c2oc(C(O)(CO)CO)nc2-c2ccc(F)cc2F)cn1-c1c(F)cccc1F` has what inhibition at 0.3 mg/kg?
Response: 72
